Data provenance: ChEMBL document CHEMBL5625183

assay_protocol: Volume of distribution at steady state in Sprague-Dawley rat at 1 mg/kg, iv measured upto 24 hrs by LC-MS/MS analysis
Type: ADME, organism-based
study_conditions: in vivo, read-out: Vdss
assay_readout: Vd (L/kg)
Give bare numbers, in L/kg.

Qu. Which Vd is reported for this compound? "NC(=O)c1cccc2[nH]c(NC(=O)c3cccc(C(=O)N4CCC(Nc5ncc(I)cn5)CC4)c3)nc12"
Ans. 1.39

----------
Provide the recorded pIC50 for the entries that follow.
System: MDA-MB-436
assay_protocol: Antiproliferative activity against human MDA-MB-436 cells assessed as inhibition of cell growth incubated for 72 hrs by MTT assay
Format: functional, cell-based
study_conditions: MDA-MB-436, 72 h
Give bare numbers, as −log10 of the molar value.

• CN(C)C/C=C/C(=O)Nc1ccc(C(=O)N2CCC[C@@H](Nc3ncc(Cl)c(-c4c[nH]c5ccccc45)n3)C2)cc1 = 5.19

The record that follows has no pIC50 shown yet.
Qu. Which pIC50 is reported for this compound? O=C(c1cc(Cc2n[nH]c(=O)c3ccccc23)ccc1F)N1CCN(C(=O)C2CC2)CC1 [OLAPARIB]
Ans. 6.15

----------
Test system: MDA-MB-468
assay_protocol: Antiproliferative activity against human MDA-MB-468 cells assessed as inhibition of cell growth incubated for 24 hrs by MTT assay
Type: functional, cell-based
study_conditions: MDA-MB-468, 24 h
assay_readout: IC50 (µM)
Numbers only, in µM.

Worked cases, IC50 given:
* NC(=O)c1cccc2[nH]c(NC(=O)c3ccc(S(=O)(=O)N4CCC(Nc5ncc(Br)cn5)CC4)cc3)nc12 | 24.6
* NC(=O)c1cccc2[nH]c(NC(=O)c3ccc(CN4CCC(Nc5ncc(C(F)(F)F)cn5)CC4)cc3)nc12 | 27.3
* NC(=O)c1cccc2[nH]c(NC(=O)c3cccc(C(=O)N4CCN(c5ncc(I)cn5)CC4)c3)nc12 | 21.8
* Cc1cnc(NC2CCN(C(=O)c3ccc(C(=O)Nc4nc5c(C(N)=O)cccc5[nH]4)cc3)CC2)nc1 | 27.6
* NC(=O)c1cccc2[nH]c(NC(=O)c3ccc(C(=O)N4CCC(Nc5ncc(C(F)(F)F)cn5)CC4)cc3)nc12 | 25.2
* NC(=O)c1cccc2[nH]c(NC(=O)c3ccc(C(=O)N4CCC(Nc5ncccn5)CC4)cc3)nc12 | 28.7

The record that follows has no IC50 shown yet.
Qu. // fetch MDA-MB-468 IC50 for "NC(=O)c1cccc2[nH]c(NC(=O)c3ccc(C(=O)N4CCN(c5ncc(C(F)(F)F)cn5)CC4)cc3)nc12"
Ans. 24.2

----------
Test system: MDA-MB-468
assay_protocol: Antiproliferative activity against human MDA-MB-468 cells assessed as inhibition of cell growth incubated for 24 hrs by MTT assay
Assay type: functional, cell-based
study_conditions: MDA-MB-468, 24 h
assay_readout: pIC50
One number for each entry, as −log10 of the molar value.

Worked cases, pIC50 given:
* CCc1cnc(NC2CCN(C(=O)c3cccc(C(=O)Nc4nc5c(C(N)=O)cccc5[nH]4)c3)CC2)nc1 | 4.64
* NC(=O)c1cccc2[nH]c(NC(=O)c3cccc(C(=O)N4CCC(Nc5ncc(Cl)cn5)CC4)c3)nc12 | 4.85
* O=C(c1cc(Cc2n[nH]c(=O)c3ccccc23)ccc1F)N1CCN(C(=O)C2CC2)CC1 | 5.47

The record that follows has no pIC50 shown yet.
Qu. // fetch MDA-MB-468 pIC50 for "NC(=O)c1cccc2[nH]c(NC(=O)c3cccc(C(=O)N4CCN(c5ncc(Br)cn5)CC4)c3)nc12"
Ans. 4.63
